Kindly state remaining binding at 1 µM for each of the entries shown.
- assay target: RET(V804L) (Homo sapiens, UniProt P07949, V804L)
- Construct: purchased Eurofins DiscoverX KINOMEscan (scanTK)
- Sequence (P07949 29-1114 V804L): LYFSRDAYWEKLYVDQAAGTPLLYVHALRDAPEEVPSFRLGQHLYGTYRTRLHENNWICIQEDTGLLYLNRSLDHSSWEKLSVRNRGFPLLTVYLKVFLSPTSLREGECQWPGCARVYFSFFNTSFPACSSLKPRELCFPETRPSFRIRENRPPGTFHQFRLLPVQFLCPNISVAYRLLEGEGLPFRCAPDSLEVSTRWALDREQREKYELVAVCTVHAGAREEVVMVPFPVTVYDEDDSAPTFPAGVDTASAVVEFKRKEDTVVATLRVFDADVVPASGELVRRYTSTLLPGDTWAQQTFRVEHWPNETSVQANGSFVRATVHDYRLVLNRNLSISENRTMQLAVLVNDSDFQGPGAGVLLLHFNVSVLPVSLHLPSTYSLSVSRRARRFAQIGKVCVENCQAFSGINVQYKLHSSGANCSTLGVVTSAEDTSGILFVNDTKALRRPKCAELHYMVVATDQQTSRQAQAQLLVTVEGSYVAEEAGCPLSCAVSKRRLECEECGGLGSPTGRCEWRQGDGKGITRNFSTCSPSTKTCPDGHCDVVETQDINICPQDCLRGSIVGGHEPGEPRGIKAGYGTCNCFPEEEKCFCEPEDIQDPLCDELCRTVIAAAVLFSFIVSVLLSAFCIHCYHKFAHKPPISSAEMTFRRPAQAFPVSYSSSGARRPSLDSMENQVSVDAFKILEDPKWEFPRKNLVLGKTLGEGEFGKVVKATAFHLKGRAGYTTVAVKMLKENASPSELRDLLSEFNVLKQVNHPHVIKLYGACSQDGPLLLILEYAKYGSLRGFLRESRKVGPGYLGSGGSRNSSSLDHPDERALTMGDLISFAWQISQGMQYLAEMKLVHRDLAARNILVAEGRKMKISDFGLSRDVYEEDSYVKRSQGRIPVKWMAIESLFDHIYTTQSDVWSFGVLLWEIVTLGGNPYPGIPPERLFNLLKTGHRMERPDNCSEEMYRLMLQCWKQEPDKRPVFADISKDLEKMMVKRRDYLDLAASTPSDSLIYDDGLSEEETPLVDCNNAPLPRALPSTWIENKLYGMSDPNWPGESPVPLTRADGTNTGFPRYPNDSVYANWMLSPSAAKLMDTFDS
- method description: KINOMEscan ScanTK
- Assay type: binding
- assay context: @1000nM, read-out: %Control
Kindly provide the numeric value in % only, without the unit symbol.

q: What remaining binding at 1 µM value was documented for this molecule, Cc1cnc(S(C)(=O)=O)nc1N1CCCC(n2nc(-c3ccc(Oc4ccccc4)cc3)c3c(N)ncnc32)C1 (stereo not shown) ?
a: 89

q: Data request, read-out remaining binding at 1 µM, for "CCOC(=O)c1cnc(S(C)(=O)=O)nc1N1CCC[C@@H](n2nc(-c3ccc(Oc4ccccc4)cc3)c3c(N)ncnc32)C1"
a: 100

q: Form field: reported remaining binding at 1 µM of CNC(=O)c1cnc(S(C)(=O)=O)nc1N1CCCC(n2nc(-c3ccc(Oc4ccccc4)cc3)c3c(N)ncnc32)C1 (stereo not shown)
a: 93

q: What does the data say about its remaining binding at 1 µM? Entry: COC(=O)c1cnc(S(C)(=O)=O)nc1N1CCCC(n2nc(-c3ccc(Oc4ccccc4)cc3)c3c(N)ncnc32)C1 (stereo not shown)
a: 90

====

- assay target: INSR (Homo sapiens, UniProt P06213)
- Construct: purchased Eurofins DiscoverX KINOMEscan (scanTK)
- Sequence (P06213 28-1382): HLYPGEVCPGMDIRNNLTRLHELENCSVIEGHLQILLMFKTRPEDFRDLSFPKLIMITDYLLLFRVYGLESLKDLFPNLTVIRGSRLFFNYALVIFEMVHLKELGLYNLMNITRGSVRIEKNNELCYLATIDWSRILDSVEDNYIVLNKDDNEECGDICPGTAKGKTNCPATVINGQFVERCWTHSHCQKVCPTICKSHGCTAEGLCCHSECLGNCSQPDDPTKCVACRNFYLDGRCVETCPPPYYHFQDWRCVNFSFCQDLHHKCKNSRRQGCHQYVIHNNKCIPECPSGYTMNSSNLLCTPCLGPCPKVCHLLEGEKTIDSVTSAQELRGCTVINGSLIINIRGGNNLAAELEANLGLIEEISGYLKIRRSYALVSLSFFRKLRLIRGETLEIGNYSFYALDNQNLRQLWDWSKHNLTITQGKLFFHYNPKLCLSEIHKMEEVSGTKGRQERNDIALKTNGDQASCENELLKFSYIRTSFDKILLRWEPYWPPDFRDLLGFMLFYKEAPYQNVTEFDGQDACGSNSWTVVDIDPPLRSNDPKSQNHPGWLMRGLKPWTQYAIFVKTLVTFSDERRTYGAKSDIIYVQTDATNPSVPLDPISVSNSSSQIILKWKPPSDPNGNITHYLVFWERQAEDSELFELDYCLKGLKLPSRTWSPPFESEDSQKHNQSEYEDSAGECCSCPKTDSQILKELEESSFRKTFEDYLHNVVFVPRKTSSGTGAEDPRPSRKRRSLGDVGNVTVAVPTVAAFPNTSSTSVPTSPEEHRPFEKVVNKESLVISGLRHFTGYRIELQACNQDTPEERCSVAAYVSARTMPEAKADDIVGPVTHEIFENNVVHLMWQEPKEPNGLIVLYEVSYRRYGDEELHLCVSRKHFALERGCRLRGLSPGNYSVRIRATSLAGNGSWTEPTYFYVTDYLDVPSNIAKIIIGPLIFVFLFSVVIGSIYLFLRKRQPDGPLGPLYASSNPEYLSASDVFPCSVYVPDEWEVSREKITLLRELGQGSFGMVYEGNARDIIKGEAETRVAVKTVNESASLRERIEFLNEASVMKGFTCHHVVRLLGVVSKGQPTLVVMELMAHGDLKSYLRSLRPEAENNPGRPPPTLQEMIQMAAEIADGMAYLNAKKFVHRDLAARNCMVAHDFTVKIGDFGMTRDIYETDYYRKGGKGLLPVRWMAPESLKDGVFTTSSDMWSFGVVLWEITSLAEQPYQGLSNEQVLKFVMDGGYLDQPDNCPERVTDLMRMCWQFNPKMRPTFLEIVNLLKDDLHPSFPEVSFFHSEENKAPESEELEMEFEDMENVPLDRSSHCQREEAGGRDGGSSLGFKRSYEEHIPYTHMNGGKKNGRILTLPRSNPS
- method description: KINOMEscan ScanTK
- Type: binding
- assay context: read-out: %Control @1000nM
assay metric: remaining binding at 1 µM (%)
// return numeric value only (unit: %, not printed)

q: For the compound shown here, Cc1cnc(S(C)(=O)=O)nc1N1CCCC(n2nc(-c3ccc(Oc4ccccc4)cc3)c3c(N)ncnc32)C1 (centres unmarked) [Compound 8a] , give the reported remaining binding at 1 µM.
a: 95

q: Need remaining binding at 1 µM of CNC(=O)c1cnc(S(C)(=O)=O)nc1N1CCCC(n2nc(-c3ccc(Oc4ccccc4)cc3)c3c(N)ncnc32)C1 (centres unmarked) [Compound 8d] , thanks.
a: 100

q: Quick check: remaining binding at 1 µM of COC(=O)c1cnc(S(C)(=O)=O)nc1N1CCCC(n2nc(-c3ccc(Oc4ccccc4)cc3)c3c(N)ncnc32)C1 (centres unmarked) [Compound 8b] ?
a: 95

q: Which value of remaining binding at 1 µM has been reported for C=CC(=O)N1CCC[C@@H](n2nc(-c3ccc(Oc4ccccc4)cc3)c3c(N)ncnc32)C1 [Compound 1g, Ibrutinib, reference compound] in the records?
a: 100

q: Give its remaining binding at 1 µM value. Item: CCOC(=O)c1cnc(S(C)(=O)=O)nc1N1CCC[C@@H](n2nc(-c3ccc(Oc4ccccc4)cc3)c3c(N)ncnc32)C1 [Compound 8c]
a: 100

====

- assay target: ABL1(T315I)-phosphorylated (Homo sapiens, UniProt P00519, T315I)
- Construct: purchased Eurofins DiscoverX KINOMEscan (scanTK)
- method description: KINOMEscan ScanTK
- Assay type: binding
- assay context: @1000nM
assay metric: difference in %Control versus compound Ib at 1 µM (%)
// note: answer is a bare numeric in %

q: Reported difference in %Control versus compound Ib at 1 µM, molecule Cc1cnc(S(C)(=O)=O)nc1N1CCCC(n2nc(-c3ccc(Oc4ccccc4)cc3)c3c(N)ncnc32)C1 (stereo not shown) [Compound 8a] : ____
a: -9

q: What does the data say about its difference in %Control versus compound Ib at 1 µM? Entry: COC(=O)c1cnc(S(C)(=O)=O)nc1N1CCCC(n2nc(-c3ccc(Oc4ccccc4)cc3)c3c(N)ncnc32)C1 (stereo not shown) [Compound 8b]
a: -11

q: Endpoint output: difference in %Control versus compound Ib at 1 µM of CCOC(=O)c1cnc(S(C)(=O)=O)nc1N1CCC[C@@H](n2nc(-c3ccc(Oc4ccccc4)cc3)c3c(N)ncnc32)C1 [Compound 8c] . Value?
a: -7

q: Reported difference in %Control versus compound Ib at 1 µM for CNC(=O)c1cnc(S(C)(=O)=O)nc1N1CCCC(n2nc(-c3ccc(Oc4ccccc4)cc3)c3c(N)ncnc32)C1 (stereo not shown) [Compound 8d] : what is it?
a: 6
